Read-out: Monokine induced gamma interferon (MIG), CXCL9 (gene 4283)
Test: BSK_CASM3C_MIG: BioMAP Diversity Plus: CASM3C Assay for Monokine induced gamma interferon (MIG) Biomarker Activity (AID 2283048);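 further: MIG protein level measured by ELISA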
Conditions: primary human coronary artery smooth muscle cells; actives raise or lower the signal
Activity calls are given as the source filed them. How the source made its calls: active means hit-call score of the fitted dose curve at least 0.9, where 1 is the maximum; inactive means score below 0.9.
Pick one and only one: true (1) for active, false (0) for inactive

The examples below pair each entry with its known result.
| compound | label.class |
| --- | --- |
| CCCCC(CC)CN1C(=O)C2C3C=CC(C3)C2C1=O (configuration not stated) | false (0) |
| COc1c(Cl)ccc(Cl)c1C(=O)O | false (0) |
| CCOC(=O)[C@H](C)Oc1ccc(Oc2nc3ccc(Cl)cc3o2)cc1 | false (0) |

Which outcome was entered for the compound CC1(C)C(C=C(Cl)Cl)C1C(=O)OCc1cccc(Oc2ccccc2)c1 (configuration not stated) in this test?
false (0)

Which outcome was entered for the compound C=CCOC(Cn1ccnc1)c1ccc(Cl)cc1Cl (configuration not stated) in this test?
false (0)

###

Assay: CCTE_Shafer_MEA_acute_burst_number: CCTE's Neural Acute Assay for Single-Electrode Bursts, Shafer Lab (AID 2284013)
The source made the active and inactive calls. Rule for the calls: active = hit-call score of the fitted dose curve at least 0.9, where 1 is the maximum; inactive = score below 0.9.
Pick one and only one: Yes = active, No = inactive

Which outcome was entered for the compound CC1(C)C(C=C(Cl)Cl)C1C(=O)OCc1cccc(Oc2ccccc2)c1 (configuration not stated) in this test?
No

###

Biological target: human Tropomyosin Receptor Kinase A (TRKA), NTRK1 (gene 4914)
Assay: NVS_ENZ_hTrkA: NovaScreen (NVS) Enzymatic Assay for human Tropomyosin Receptor Kinase A (TRKA) (AID 2283224)
Inconclusive results are not listed. The source made the active and inactive calls. How the source made its calls: active means hit-call score of the fitted dose curve at least 0.9, where 1 is the maximum; inconclusive means response in the unintended direction; inactive means score below 0.9.
Pick one and only one: active, inactive

| smiles | system.under.test | label.class |
| --- | --- | --- |
| Oc1ccc(C(c2ccc(O)cc2)C(Cl)(Cl)Cl)cc1 | human Tropomyosin Receptor Kinase A (TRKA), NTRK1 (gene 4914) | active |
| CC(C)CCCCCCc1ccc(O)cc1 | human Tropomyosin Receptor Kinase A (TRKA), NTRK1 (gene 4914) | inactive |
| CC(C)(c1ccc(O)cc1)c1ccc(O)cc1 | human Tropomyosin Receptor Kinase A (TRKA), NTRK1 (gene 4914) | active |
| S=C(S)NCCNC(=S)S.[Mn+2].[S-]C([S-])=NCCN=C([S-])[S-].[Zn+2] | human Tropomyosin Receptor Kinase A (TRKA), NTRK1 (gene 4914) | active |
| O=C(c1ccc(O)cc1O)c1ccc(O)cc1O | human Tropomyosin Receptor Kinase A (TRKA), NTRK1 (gene 4914) | active |

Now consider the entry below.
Which outcome was entered for the molecule c1ccc2[nH]c(-c3cscn3)nc2c1 in this test?
active

###

Read-out: Interleukin-8 (IL8), CXCL8 (gene 3576)
Assay: BSK_hDFCGF_IL8: BioMAP Diversity Plus: hDFCGF Assay for Interleukin-8 (IL8) Biomarker Activity (AID 2283058)
Conditions: primary human foreskin fibroblasts; actives raise or lower the signal
Calls of active or inactive are those of the source. How the source made its calls: active means hit-call score of the fitted dose curve at least 0.9, where 1 is the maximum; inactive means score below 0.9.
Pick one and only one: active, inactive

The examples below pair each entry with its known result.
| compound | label.class |
| --- | --- |
| COC(=O)c1ccc(I)cc1S(=O)(=O)NC(=O)Nc1nc(C)nc(OC)n1 | inactive |
| CCOC(=O)COc1cc(-n2ncc(C(F)(F)F)c(C)c2=O)c(F)cc1Cl | inactive |
| CSC(=O)c1cccc2nnsc12 | inactive |

Which outcome was entered for the compound CC1(C)C(C=C(Cl)Cl)C1C(=O)OCc1cccc(Oc2ccccc2)c1 (stereo unspecified) in this test?
inactive

Which outcome was entered for the compound O=C(O)c1ccccc1 in this test?
inactive

Which outcome was entered for the compound COC(=O)c1ccccc1S(=O)(=O)NC(=O)Nc1nc(OC(F)F)cc(OC(F)F)n1 in this test?
inactive

Which outcome was entered for the compound CCCCOC(=O)C(C)Oc1ccc(Oc2ccc(C(F)(F)F)cn2)cc1 (stereo unspecified) in this test?
inactive

Which outcome was entered for the compound O=C(O)C1(C(=O)Nc2ccc(Cl)cc2Cl)CC1 in this test?
inactive

Which outcome was entered for the compound CN(C)C(=O)Nc1ccc(Cl)c(Cl)c1 in this test?
inactive

Which outcome was entered for the compound CCCN(CCC)C(=O)SCC in this test?
inactive

Which outcome was entered for the compound CC(=O)S[C@@H]1CC2=CC(=O)CC[C@]2(C)[C@H]2CC[C@@]3(C)[C@@H](CC[C@@]34CCC(=O)O4)[C@H]12 in this test?
active

###

Assay: APR_HepG2_MicrotubuleCSK_72hr: Apredica 72-hour HepG2 Assay for Microtubule CSK Stabilty (AID 2282919)
Conditions: HepG2 microtubule cytoskeleton, high-content imaging, actives raise or lower the signal
Active and inactive are the calls of the source. Rule for the calls: active = hit-call score of the fitted dose curve at least 0.9, where 1 is the maximum; inactive = score below 0.9.

| smiles | outcome |
| --- | --- |
| COC(=O)c1ccccc1S(=O)(=O)NC(=O)Nc1nc(OC(F)F)cc(OC(F)F)n1 | inactive |
| CCCCOC(=O)[C@@H](C)Oc1ccc(Oc2ccc(C(F)(F)F)cn2)cc1 | inactive |
| COC(=O)c1ccc(CNS(C)(=O)=O)cc1S(=O)(=O)NC(=O)Nc1nc(OC)cc(OC)n1 | inactive |

###

Read-out: UDP glucuronosyltransferase (UGT1A1), UGT1A1 (gene 54658)
Assay: LTEA_HepaRG_UGT1A1: Life Technologies and Expression Analysis (LTEA) Assay for UDP glucuronosyltransferase (UGT1A1) using HepaRG (AID 2283538)
Settings: mRNA level, 48 h; actives raise or lower the signal
Active and inactive are the calls of the source. Rule for the calls: active = hit-call score of the fitted dose curve at least 0.9, where 1 is the maximum; inactive = score below 0.9.
reported.endpoint: outcome

| smiles | reported.endpoint | value.measured |
| --- | --- | --- |
| CCCN(CCC)C(=O)SCC | outcome | inactive |
| COc1c(Cl)ccc(Cl)c1C(=O)O | outcome | inactive |
| CCCCCOC(=O)COc1cc(N2C(=O)C3=C(CCCC3)C2=O)c(F)cc1Cl | outcome | inactive |

###

Assay: ATG_MRE_CIS: Attagene CIS-FACTORIAL HepG2 Assay for human Metal Responsive Element (MRE) (AID 2282954)
Conditions: HepG2 MRE cis-reporter transcription, Attagene multiplex; actives raise or lower the signal
Procedure: ATG_CIS is a cell-based, multiplexed-readout assay that uses HepG2, a human liver cell line, with measurements taken at 24 hours after chemical dosing in a 24-well plate.ATG_MRE_CIS is one of 52 assay component(s) measured or calculated from the ATG_CIS assay. […] This assay endpoint, ATG_MRE_CIS, was analyzed with bidirectional fitting relative to DMSO as the negative control and baseline of activity. […]
Activity calls are given as the source filed them. Rule for the calls: active = hit-call score of the fitted dose curve at least 0.9, where 1 is the maximum; inactive = score below 0.9.

| smiles | outcome |
| --- | --- |
| O=C(O)C1(C(=O)Nc2ccc(Cl)cc2Cl)CC1 | inactive |
| c1ccc2[nH]c(-c3cscn3)nc2c1 | inactive |
| CCN(CC)C(=O)c1cccc(C)c1 | inactive |

###

Experiment: CCTE_Shafer_MEA_dev_network_spike_number: CCTE's Neural Network Formation Assay for Number of Network Spikes, Shafer Lab (AID 2284048);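 further: synchronized bursts across electrodes counted on days 5 7 9 12 and integrated as AUC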
Calls of active or inactive are those of the source. Rule for the calls: active = hit-call score of the fitted dose curve at least 0.9, where 1 is the maximum; inactive = score below 0.9.
Pick one and only one: T for active, F for inactive

The examples below pair each entry with its known result.
| compound | label.class |
| --- | --- |
| S=C(S)NCCNC(=S)S.[Mn+2].[S-]C([S-])=NCCN=C([S-])[S-].[Zn+2] | F |
| C#CCOC(=O)[C@@H](C)Oc1ccc(Oc2ncc(Cl)cc2F)cc1 | F |
| S=C([S-])NCCNC(=S)[S-].[Mn+2] | F |

Which outcome was entered for the compound Cc1nn(C)c(Oc2ccccc2)c1C=NOCc1ccc(C(=O)OC(C)(C)C)cc1 in this test?
T

Which outcome was entered for the compound CCCN(CCC)C(=O)SCC in this test?
F

Which outcome was entered for the compound COCCO in this test?
F

Which outcome was entered for the compound O=C(O)c1ccccc1 in this test?
F

Which outcome was entered for the compound Oc1ccc(C(c2ccc(O)cc2)C(Cl)(Cl)Cl)cc1 in this test?
F

Which outcome was entered for the compound CC1(C)C(C=C(Cl)Cl)C1C(=O)OCc1cccc(Oc2ccccc2)c1 (centres undefined) in this test?
F

###

Experiment: BSK_3C_VCAM1: BioMAP Diversity Plus: 3C Assay for Vascular cell adhesion molecule 1 (VCAM1) Biomarker Activity (AID 2282999)
Details: BioMAP 3C HUVEC, VCAM1 ELISA, cytokine-stimulated; actives raise or lower the signal
The source made the active and inactive calls. Rule for the calls: active = hit-call score of the fitted dose curve at least 0.9, where 1 is the maximum; inactive = score below 0.9.
Pick one and only one: active, inactive

The examples below pair each entry with its known result.
| compound | label.class |
| --- | --- |
| CCCCOCCOCCOCc1cc2c(cc1CCC)OCO2 | inactive |
| CC(C)(c1ccc(O)cc1)c1ccc(O)cc1 | inactive |
| COC(=O)c1c(Cl)nn(C)c1S(=O)(=O)NC(=O)Nc1nc(OC)cc(OC)n1 | inactive |

Which outcome was entered for the compound COC(=O)CSc1cc(N=c2sc(=O)n3n2CCCC3)c(F)cc1Cl in this test?
inactive

Which outcome was entered for the compound CCCCOC(=O)C(C)Oc1ccc(Oc2ccc(C(F)(F)F)cn2)cc1 (centres undefined) in this test?
inactive
